Molecular target: Sterol O-acyltransferase 2 (Homo sapiens, UniProt O75908)
Sequence (O75908 whole entry): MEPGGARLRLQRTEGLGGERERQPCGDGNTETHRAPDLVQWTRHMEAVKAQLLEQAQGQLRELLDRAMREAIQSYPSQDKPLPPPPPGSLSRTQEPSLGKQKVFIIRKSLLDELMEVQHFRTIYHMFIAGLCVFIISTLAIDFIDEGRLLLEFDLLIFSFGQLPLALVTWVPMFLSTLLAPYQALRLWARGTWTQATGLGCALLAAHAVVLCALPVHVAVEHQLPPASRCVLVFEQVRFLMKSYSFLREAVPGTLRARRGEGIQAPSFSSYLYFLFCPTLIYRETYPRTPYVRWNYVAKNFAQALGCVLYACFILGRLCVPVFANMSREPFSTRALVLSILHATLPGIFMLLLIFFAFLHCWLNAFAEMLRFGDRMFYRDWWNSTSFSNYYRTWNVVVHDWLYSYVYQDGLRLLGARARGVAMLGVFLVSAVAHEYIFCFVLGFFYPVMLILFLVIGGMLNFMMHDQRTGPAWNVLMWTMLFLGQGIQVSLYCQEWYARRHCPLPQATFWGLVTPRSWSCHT
Assay: Inhibition of human SOAT2-mediated [14C]Cholesterol ester biosynthesis in CHO microsomal fraction after 5 mins in presence of [1-14C]oleoyl-CoA by TLC analysis
reported_endpoint: IC50 (µM)
Unit µM implied. Number only.

INSERT INTO measurements (compound, test_result) VALUES
  ('CC(=O)OCCC(/C=C/C=C/C#CC#C/C=C/CO)OC(=O)C=C(C)C (configuration not stated)', 11.5);

Kindly review the next compound as well.
// query Give IC50; test system Sterol O-acyltransferase 2 (Homo sapiens, UniProt O75908); compound C=C1CCC[C@]2(C)C[C@]3(O)OC(=O)C(C)=C3C[C@@H]12 [ATRACTYLENOLIDE III]
// result 101

###

Tested on: CHO-K1
Assay: Cytotoxicity against CHOK1 cells assessed as reduction in cell viability
Format: cell-based
Conditions: Cricetulus griseus
reported_endpoint: IC50 (µM)
Report only the number, with the unit µM understood.

// query Give a short answer stating reported IC50 for CC(=O)OCCC(/C=C/C=C/C#CC#C/C=C/CO)OC(=O)C=C(C)C (configuration not stated) .
// result 111

###

Target: Sterol O-acyltransferase 1 (Homo sapiens)
Sequence (P35610 whole entry): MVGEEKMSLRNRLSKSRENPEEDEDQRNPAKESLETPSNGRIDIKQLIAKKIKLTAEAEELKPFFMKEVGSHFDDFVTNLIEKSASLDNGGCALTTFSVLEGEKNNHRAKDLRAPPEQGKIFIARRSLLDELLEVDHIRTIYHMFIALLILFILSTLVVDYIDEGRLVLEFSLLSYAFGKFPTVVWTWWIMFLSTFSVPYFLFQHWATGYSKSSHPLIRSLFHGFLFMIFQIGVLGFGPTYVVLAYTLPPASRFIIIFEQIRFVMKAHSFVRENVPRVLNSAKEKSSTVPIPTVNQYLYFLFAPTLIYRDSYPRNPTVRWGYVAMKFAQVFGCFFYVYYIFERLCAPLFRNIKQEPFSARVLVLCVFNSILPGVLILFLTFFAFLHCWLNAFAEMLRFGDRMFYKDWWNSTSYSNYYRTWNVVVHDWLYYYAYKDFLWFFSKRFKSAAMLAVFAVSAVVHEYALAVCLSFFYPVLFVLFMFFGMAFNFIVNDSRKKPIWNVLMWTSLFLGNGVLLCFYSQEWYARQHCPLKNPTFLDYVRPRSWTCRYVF
Test: Inhibition of human SOAT1-mediated [14C]Cholesterol ester biosynthesis in CHO microsomal fraction after 5 mins in presence of [1-14C]oleoyl-CoA by TLC analysis
reported_endpoint: pIC50
Remember, pIC50 is on a log scale: it is -log10 of the molar concentration.

// query Name the recorded pIC50 of CC(=O)OCCC(/C=C/C=C/C#CC#C/C=C/CO)OC(=O)C=C(C)C (stereo unspecified) , assay system Sterol O-acyltransferase 1 (Homo sapiens).
// result 5.33

###

Below, each entry is listed with its recorded pIC50.
Biological target: UniProtKB O75908
Assay: Inhibition of human SOAT2-mediated [14C]Cholesterol ester synthesis in CHO cells after 6 hrs in presence of [14C]Oleic acid by TLC analysis
Assay type: cell-based
Kindly note that pIC50 refers to -log10 of the concentration in mol/L and answer with the value alone.

INSERT INTO assay_data (compound, target, reported_endpoint, test_result) VALUES
  ('C=C1CCC[C@]2(C)C[C@]3(O)OC(=O)C(C)=C3C[C@@H]12 [ATRACTYLENOLIDE III]', 'UniProtKB O75908', 'pIC50', 3.73);

// query Indicate its recorded pIC50; the compound in question is CC(=O)OCCC(/C=C/C=C/C#CC#C/C=C/CO)OC(=O)C=C(C)C (configuration not stated)
// result 4.44

###

Tested on: CHO-K1
Test: Inhibition of [14C]cholesterol ester biosynthesis in CHOK1 cells using [14C]Oleic acid as substrate after 6 hrs by TLC method
Format: functional, cell-based
Conditions: Cricetulus griseus, CHO-K1, 6 h
reported_endpoint: IC50 (µM)
Express the result in µM but write the number alone.

INSERT INTO results (compound, reading_unit, test_result) VALUES
  ('CC(=O)OCCC(/C=C/C=C/C#CC#C/C=C/CO)OC(=O)C=C(C)C (configuration not stated)', 'µM', 35.4);

Then there is this compound:
// query Supply IC50 measured with CHO-K1 for C=C1CCC[C@]2(C)C[C@]3(O)OC(=O)C(C)=C3C[C@@H]12 [ATRACTYLENOLIDE III] .
// result 73.5
